Reference source for all entries: ChEMBL document CHEMBL1131232

Experiment: Half-life in rats after iv administration
Assay type: ADME, organism-based
Conditions: rat, in vivo
VALUE TYPE: half-life (h)
Write the number in h without appending the unit.

Query block: Suppose we examine the compound "C[C@@H](n1cnc2cc(F)ccc2c1=O)[C@](O)(Cn1cncn1)c1ccc(F)cc1F" ; what half-life value has been reported?
Result block: 1.4

Attention now shifts to the item below.
Query block: Suppose we examine the compound C[C@@H](n1cnc2cc(Cl)ccc2c1=O)[C@](O)(Cn1cncn1)c1ccc(F)cc1F (stereo in doubt; 20) ; what half-life value has been reported?
Result block: 2.9

* * *

System: Candida albicans
Test: Tested in vivo for anti-candida activity in mice model 1 (dose: 0.5 mg/kg, untreated group).
Format: functional
VALUE TYPE: Protection (%)
Write the number in % without appending the unit.

Example entries begin here.
Query block: Form: Entry = "C[C@@H](n1ncn(-c2ccc(OCC(F)(F)C(F)F)cc2)c1=O)[C@](O)(Cn1cncn1)c1ccc(F)cc1F" | System = Candida albicans | Protection = ____
Result block: 100

Query block: Same again, this time with "OC(Cn1cncn1)(Cn1cncn1)c1ccc(F)cc1F"
Result block: 100

Query block: Same again, this time with "C[C@@H](c1nc(-c2ccc(C#N)cc2)cs1)[C@](O)(Cn1cncn1)c1ccc(F)cc1F"
Result block: 50

Query block: Same again, this time with CCC(C)n1ncn(-c2ccc(N3CCN(c4ccc(OC[C@@H]5CO[C@@](Cn6cncn6)(c6ccc(Cl)cc6Cl)O5)cc4)CC3)cc2)c1=O (some centres not stated)
Result block: 0

Query block: Same again, this time with "C[C@H]([C@](O)(Cn1cncn1)c1ccc(F)cc1F)S(C)(=O)=O"
Result block: 100

Query block: Same again, this time with "C[C@@H](NC(=O)c1ccc(C(F)(F)F)cc1)[C@](O)(Cn1cncn1)c1ccc(F)cc1F"
Result block: 100

***
Query block: Form: Entry = "C[C@@H](c1ncncc1F)[C@](O)(Cn1cncn1)c1ccc(F)cc1F" | System = Candida albicans | Protection = ____
Result block: 0
